# TARGET_OR_SYSTEM: Calcitonin gene-related peptide type 1 receptor (Homo sapiens, UniProt O60894+Q16602)
# Sequence (Q16602 whole entry, one chain of several): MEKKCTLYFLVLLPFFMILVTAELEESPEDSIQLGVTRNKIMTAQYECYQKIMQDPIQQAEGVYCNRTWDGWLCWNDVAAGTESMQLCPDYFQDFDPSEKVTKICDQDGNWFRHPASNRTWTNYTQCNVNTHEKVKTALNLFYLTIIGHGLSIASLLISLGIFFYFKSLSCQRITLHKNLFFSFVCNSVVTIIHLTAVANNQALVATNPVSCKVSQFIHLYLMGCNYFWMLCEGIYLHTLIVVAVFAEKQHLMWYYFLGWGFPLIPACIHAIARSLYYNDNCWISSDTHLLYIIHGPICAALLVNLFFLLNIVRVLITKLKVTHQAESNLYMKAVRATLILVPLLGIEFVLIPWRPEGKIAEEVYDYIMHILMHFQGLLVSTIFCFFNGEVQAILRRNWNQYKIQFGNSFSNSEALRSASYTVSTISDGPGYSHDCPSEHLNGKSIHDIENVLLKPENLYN
# PROTOCOL_TEXT: Displacement of [125I]CGRP from CGRP receptor in human SK-N-MC cell membranes preincubated for 30 mins followed by radioligand addition measured after 2 hrs by liquid scintillation counting
pKi: −log10 of the molar value.
The following compounds are shown together with reported pKi values.
MEASURED_ENDPOINT: pKi

[[record]]
compound = "CC(C)(C)CCN1C(=O)C(CC(=O)N2CCC(N3Cc4ccccc4NC3=O)CC2)SC1c1ccccc1-n1ccnc1 (stereo not drawn)"
measured_endpoint = "pKi"
measured_value = 8.15

[[record]]
compound = "O=C(CC1SC(c2ccccc2)N(Cc2ccc(F)cc2)C1=O)N1CCC(N2Cc3ccccc3NC2=O)CC1 (stereo not drawn)"
measured_endpoint = "pKi"
measured_value = 7.25

[[record]]
compound = "COCCN1C(=O)C(CC(=O)N2CCC(N3Cc4ccccc4NC3=O)CC2)SC1c1ccccc1 (stereo not drawn)"
measured_endpoint = "pKi"
measured_value = 6.91

[[record]]
compound = "CC(C)(C)CCN1C(=O)C(CC(=O)N2CCC(N3Cc4ccccc4NC3=O)CC2)SC1c1ccccc1N1CCOCC1 (stereo not drawn)"
measured_endpoint = "pKi"
measured_value = 7.28

[[record]]
compound = "O=C(CC1SC(c2ccccc2)N(Cc2cccnc2)C1=O)N1CCC(N2Cc3ccccc3NC2=O)CC1 (stereo not drawn)"
measured_endpoint = "pKi"
measured_value = 6.59

[[record]]
compound = "CCCCN1CCN(c2ccccc2C2SC(CC(=O)N3CCC(N4Cc5ccccc5NC4=O)CC3)C(=O)N2CCC(C)(C)C)CC1 (stereo not drawn)"
measured_endpoint = "pKi"
measured_value = 8.52

[[record]]
compound = "O=C(CC1SC(c2ccccc2)N(CC(F)(F)F)C1=O)N1CCC(N2Cc3ccccc3NC2=O)CC1 (stereo not drawn)"
measured_endpoint = "pKi"
measured_value = 6.12

[[record]]
compound = "CC(C)(C)CN1C(=O)C(CC(=O)N2CCC(N3Cc4ccccc4NC3=O)CC2)SC1c1ccccc1 (stereo not drawn)"
measured_endpoint = "pKi"
measured_value = 8.05


====

# TARGET_OR_SYSTEM: Calcitonin gene-related peptide type 1 receptor (Homo sapiens, UniProt O60894+Q16602)
# PROTOCOL_TEXT: Antagonist activity at CGRP receptor in human SK-N-MC cells assessed as inhibition of CGRP-stimulated cAMP production preincubated for 30 mins followed by CGRP addition measured after 3 hrs by beta-lactamase reporter gene-based FRET assay
pIC50: −log10 of the molar value.
The following compounds are shown together with reported pIC50 values.
MEASURED_ENDPOINT: pIC50

[[record]]
compound = "CC(C)CCN1C(=O)C(CC(=O)N2CCC(N3Cc4ccccc4NC3=O)CC2)SC1c1ccccc1 (racemic)"
target_or_system = "Calcitonin gene-related peptide type 1 receptor (Homo sapiens, UniProt O60894+Q16602)"
measured_endpoint = "pIC50"
measured_value = 6.43

[[record]]
compound = "O=C(CC1SC(c2ccccc2)N(CCc2ccccn2)C1=O)N1CCC(N2Cc3ccccc3NC2=O)CC1 (configuration not stated)"
target_or_system = "Calcitonin gene-related peptide type 1 receptor (Homo sapiens, UniProt O60894+Q16602)"
measured_endpoint = "pIC50"
measured_value = 5.86

[[record]]
compound = "CC(C)(C)CCN1C(=O)C(CC(=O)N2CCC(N3Cc4ccccc4NC3=O)CC2)SC1c1cccc(F)c1F (configuration not stated)"
target_or_system = "Calcitonin gene-related peptide type 1 receptor (Homo sapiens, UniProt O60894+Q16602)"
measured_endpoint = "pIC50"
measured_value = 6.68

[[record]]
compound = "CC(C)(C)CCN1C(=O)C(CC(=O)N2CCC(N3Cc4ccccc4NC3=O)CC2)SC1c1ccccc1-n1cccn1 (configuration not stated)"
target_or_system = "Calcitonin gene-related peptide type 1 receptor (Homo sapiens, UniProt O60894+Q16602)"
measured_endpoint = "pIC50"
measured_value = 7.21

[[record]]
compound = "CC(C)N1C(=O)C(CC(=O)N2CCC(N3Cc4ccccc4NC3=O)CC2)SC1c1ccccc1 (configuration not stated)"
target_or_system = "Calcitonin gene-related peptide type 1 receptor (Homo sapiens, UniProt O60894+Q16602)"
measured_endpoint = "pIC50"
measured_value = 5.82

[[record]]
compound = "CC(C)(C)CCN1C(=O)C(CC(=O)N2CCC(N3Cc4ccccc4NC3=O)CC2)SC1c1ccccc1N1CCOCC1 (configuration not stated)"
target_or_system = "Calcitonin gene-related peptide type 1 receptor (Homo sapiens, UniProt O60894+Q16602)"
measured_endpoint = "pIC50"
measured_value = 6.80

[[record]]
compound = "O=C(CC1SC(c2ccccc2)N(CC(F)(F)F)C1=O)N1CCC(N2Cc3ccccc3NC2=O)CC1 (configuration not stated)"
target_or_system = "Calcitonin gene-related peptide type 1 receptor (Homo sapiens, UniProt O60894+Q16602)"
measured_endpoint = "pIC50"
measured_value = 5.34

[[record]]
compound = "CC(C)(C)CCN1C(=O)C(CC(=O)N2CCC(N3Cc4ccccc4NC3=O)CC2)SC1c1ccccc1-c1ccncc1 (configuration not stated)"
target_or_system = "Calcitonin gene-related peptide type 1 receptor (Homo sapiens, UniProt O60894+Q16602)"
measured_endpoint = "pIC50"
measured_value = 7.00

[[record]]
compound = "O=C(CC1SC(c2ccccc2)N(C2CC2)C1=O)N1CCC(N2Cc3ccccc3NC2=O)CC1 (configuration not stated)"
target_or_system = "Calcitonin gene-related peptide type 1 receptor (Homo sapiens, UniProt O60894+Q16602)"
measured_endpoint = "pIC50"
measured_value = 5.29

[[record]]
compound = "CC(C)(C)CCN1C(=O)C(CC(=O)N2CCC(N3Cc4ccccc4NC3=O)CC2)SC1c1c(F)cccc1F (configuration not stated)"
target_or_system = "Calcitonin gene-related peptide type 1 receptor (Homo sapiens, UniProt O60894+Q16602)"
measured_endpoint = "pIC50"
measured_value = 6.77

[[record]]
compound = "CC(c1ccccc1)N1C(=O)C(CC(=O)N2CCC(N3Cc4ccccc4NC3=O)CC2)SC1c1ccccc1 (configuration not stated)"
target_or_system = "Calcitonin gene-related peptide type 1 receptor (Homo sapiens, UniProt O60894+Q16602)"
measured_endpoint = "pIC50"
measured_value = 6.03

[[record]]
compound = "CN1CCN(c2ccccc2C2SC(CC(=O)N3CCC(N4CCc5ccccc5NC4=O)CC3)C(=O)N2CCC(C)(C)C)CC1 (configuration not stated)"
target_or_system = "Calcitonin gene-related peptide type 1 receptor (Homo sapiens, UniProt O60894+Q16602)"
measured_endpoint = "pIC50"
measured_value = 7.72

[[record]]
compound = "CN1C(=O)C(CC(=O)N2CCC(N3Cc4ccccc4NC3=O)CC2)SC1c1ccccc1 (configuration not stated)"
target_or_system = "Calcitonin gene-related peptide type 1 receptor (Homo sapiens, UniProt O60894+Q16602)"
measured_endpoint = "pIC50"
measured_value = 5.35

[[record]]
compound = "O=C(CC1SC(c2ccccc2)N(Cc2ccc(F)cc2)C1=O)N1CCC(N2Cc3ccccc3NC2=O)CC1 (configuration not stated)"
target_or_system = "Calcitonin gene-related peptide type 1 receptor (Homo sapiens, UniProt O60894+Q16602)"
measured_endpoint = "pIC50"
measured_value = 6.12

[[record]]
compound = "O=C(CC1SC(c2ccccc2)N(Cc2cccnc2)C1=O)N1CCC(N2Cc3ccccc3NC2=O)CC1 (configuration not stated)"
target_or_system = "Calcitonin gene-related peptide type 1 receptor (Homo sapiens, UniProt O60894+Q16602)"
measured_endpoint = "pIC50"
measured_value = 6.10

[[record]]
compound = "CN1CCN(c2c(F)cccc2C2SC(CC(=O)N3CCC(N4CCc5ccccc5NC4=O)CC3)C(=O)N2CCC(C)(C)C)CC1 (configuration not stated)"
target_or_system = "Calcitonin gene-related peptide type 1 receptor (Homo sapiens, UniProt O60894+Q16602)"
measured_endpoint = "pIC50"
measured_value = 8.52

[[record]]
compound = "CC(C)CCN(Cc1cc(Br)c(O)c(Br)c1)C(=O)CCC(=O)N1CCC(N2Cc3ccccc3NC2=O)CC1"
target_or_system = "Calcitonin gene-related peptide type 1 receptor (Homo sapiens, UniProt O60894+Q16602)"
measured_endpoint = "pIC50"
measured_value = 6.13


====

The following compounds are shown together with reported Kp values.
# PROTOCOL_TEXT: Ratio of drug level in brain to plasma in rat administered as iv bolus measured after 0.25 to 1 hr post dosing
# Type: ADME, organism-based
# CONDITION_SUMMARY: brain and plasma, read-out: BPR
MEASURED_ENDPOINT: Kp

[[record]]
compound = "NCCCC[C@H](NC(=O)[C@@H](Cc1cc(Br)c(O)c(Br)c1)NC(=O)N1CCC(N2Cc3ccccc3NC2=O)CC1)C(=O)N1CCN(c2ccncc2)CC1"
measured_endpoint = "Kp"
readout_relation = "<"
measured_value = 0.03

[[record]]
compound = "CC(C)(C)CCN1C(=O)[C@H](CC(=O)N2CCC(N3CCc4ccccc4NC3=O)CC2)S[C@@H]1c1cccc(F)c1N1CCN(C(C)(C)C)CC1"
measured_endpoint = "Kp"
readout_relation = "="
measured_value = 0.53

[[record]]
compound = "O=C(N[C@@H]1CC[C@@H](c2cccc(F)c2F)CN(CC(F)(F)F)C1=O)N1CCC(n2c(=O)[nH]c3ncccc32)CC1"
measured_endpoint = "Kp"
readout_relation = "="
measured_value = 0.03

[[record]]
compound = "CC(C)N1CCN(c2c(F)cccc2C2SC(CC(=O)N3CCC(N4CCc5ccccc5NC4=O)CC3)C(=O)N2CCC(C)(C)C)CC1 (centres undefined)"
measured_endpoint = "Kp"
readout_relation = "="
measured_value = 1.51

